Data origin, for the record: patent US20250230165A1

Target: Human Polθ polymerase domain (aa1820-2590) (Homo sapiens, UniProt O75417)
Construct: Human Polθ polymerase domain (aa1820-2590) was expressed in E. coli; made in house; host or cells: E. coli
Sequence (O75417 1820-2590): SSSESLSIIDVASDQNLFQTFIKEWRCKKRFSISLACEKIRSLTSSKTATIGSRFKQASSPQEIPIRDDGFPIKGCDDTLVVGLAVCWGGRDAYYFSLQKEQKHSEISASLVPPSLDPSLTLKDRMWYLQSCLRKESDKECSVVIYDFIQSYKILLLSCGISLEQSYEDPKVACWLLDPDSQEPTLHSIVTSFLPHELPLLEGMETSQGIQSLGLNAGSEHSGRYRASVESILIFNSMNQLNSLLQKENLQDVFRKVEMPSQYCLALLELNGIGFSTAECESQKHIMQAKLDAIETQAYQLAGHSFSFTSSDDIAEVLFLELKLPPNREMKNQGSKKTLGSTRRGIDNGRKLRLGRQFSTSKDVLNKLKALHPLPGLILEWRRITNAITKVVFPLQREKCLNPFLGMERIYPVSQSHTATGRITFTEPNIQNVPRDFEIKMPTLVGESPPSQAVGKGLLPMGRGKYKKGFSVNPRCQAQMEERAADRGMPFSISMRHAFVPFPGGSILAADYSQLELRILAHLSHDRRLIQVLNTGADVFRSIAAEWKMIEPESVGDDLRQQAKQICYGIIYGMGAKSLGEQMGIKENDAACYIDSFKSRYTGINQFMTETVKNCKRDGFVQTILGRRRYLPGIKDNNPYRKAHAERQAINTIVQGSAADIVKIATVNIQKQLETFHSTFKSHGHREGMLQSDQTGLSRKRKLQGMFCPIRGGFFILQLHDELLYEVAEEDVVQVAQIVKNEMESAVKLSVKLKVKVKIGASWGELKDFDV
Assay: Polθ Polymerase Domain Kinact/KI Assay (PicoGreen)
Assay type: biochemical
Conditions: 0.8 nM Polθ, 100 nM DNA substrate, kobs vs [I] fit for 2-step covalent inhibitor
Exam item: assign Y to entries whose Kinact/Kl is below 800000 M⁻¹ s⁻¹ and N to entries at or above 800000 M⁻¹ s⁻¹. Note that a value of exactly 800000 M⁻¹ s⁻¹ receives N.

Request: Consider the compound C=CC(=O)N1CCN2CCN(CCN3C[C@H]4CC(=O)N(c5cc(C(F)(F)F)cc(C)n5)[C@@H]4C(=O)N(C)c4cccc(F)c43)C[C@H]2C1 (racemic) [Example 23a] . Is its Kinact/Kl strictly less than 800000 M⁻¹ s⁻¹?
Response: Y

Request: Consider the compound C=C(CN(C)C)C(=O)N1CC(COCCN2C[C@H]3CC(=O)N(c4cc(C(F)(F)F)cc(C)n4)[C@@H]3C(=O)N(C)c3cccc(C)c32)C1 . Is its Kinact/Kl strictly less than 800000 M⁻¹ s⁻¹?
Response: N

Request: Consider the compound C=CC(=O)N1Cc2cc(CN3C[C@H]4CC(=O)N(c5cc(C(F)(F)F)cc(C)n5)[C@@H]4C(=O)N(C)c4cccc(Cl)c43)cnc2C1COC (single isomer, unassigned) [Example 237] . Is its Kinact/Kl strictly less than 800000 M⁻¹ s⁻¹?
Response: Y

Request: Consider the compound Cc1cc(C(F)(F)F)cc(N2C(=O)C[C@@H]3CN(Cc4ccc5c(c4)CN(C(=O)/C=C/CN(C)C)[C@H]5CC#N)c4c(Cl)cccc4N(C)C(=O)[C@H]32)n1 (racemic) [Example 310a] . Is its Kinact/Kl strictly less than 800000 M⁻¹ s⁻¹?
Response: N

Request: Consider the compound CC#CC(=O)N1CCn2cc(CN3C[C@H]4CC(=O)N(c5cc(C(F)(F)F)cc(C)n5)[C@@H]4C(=O)N(C)c4cccc(C)c43)nc2C1 . Is its Kinact/Kl strictly less than 800000 M⁻¹ s⁻¹?
Response: N

Request: Consider the compound C=CC(=O)N1CC(=O)N2CCN(CCN3C[C@H]4CC(=O)N(c5cc(C(F)(F)F)cc(C)n5)[C@@H]4C(=O)N(C)c4cccc(F)c43)CC2C1 (mixture of isomers) [Example 62a] . Is its Kinact/Kl strictly less than 800000 M⁻¹ s⁻¹?
Response: N

Request: Consider the compound C=CC(=O)N1CC[C@H](NCCN2C[C@H]3CC(=O)N(c4cc(C(F)(F)F)cc(C)n4)[C@@H]3C(=O)N(C)c3cccc(Cl)c32)[C@H](F)C1 . Is its Kinact/Kl strictly less than 800000 M⁻¹ s⁻¹?
Response: N

Request: Consider the compound C=C(CN(C)C)C(=O)NC12CC(CN3C[C@H]4CC(=O)N(c5cc(C(F)(F)F)cc(C)n5)[C@@H]4C(=O)N(C)c4cccc(C)c43)(C1)C2 . Is its Kinact/Kl strictly less than 800000 M⁻¹ s⁻¹?
Response: N

Request: Consider the compound C=CC(=O)N1Cc2nc(CN3C[C@H]4CC(=O)N(c5cc(C(F)(F)F)cc(C)n5)[C@@H]4C(=O)N(C)c4cccc(Cl)c43)n(C)c2C1 . Is its Kinact/Kl strictly less than 800000 M⁻¹ s⁻¹?
Response: Y

Request: Consider the compound C=CC(=O)N1CC(N2CC[C@@H](CN3C[C@H]4CC(=O)N(c5cc(C(F)(F)F)cc(C)n5)[C@@H]4C(=O)N(C)c4cccc(C)c43)C2)C1 . Is its Kinact/Kl strictly less than 800000 M⁻¹ s⁻¹?
Response: N
